test system: HepG 2.2.15 cells; assay: Cytotoxicity test (CellTiter-Blue); assay type: cell-based; conditions: 6 days of culture, read-out: Toxicity CC50
readout-name: CC50

[[record]]
molecule = "CC(C)OC(=O)[C@H](C)N[P@](=O)(CO[C@H](C)Cn1cnc2c(N)ncnc21)Oc1ccccc1 [GS-7171, reference compound]"
result_value = "> 10 µM"


Numbers sourced from patent US9908908B2.
